# Target desc: MMP-2 (Homo sapiens)
# Sequence (P08253 110-660): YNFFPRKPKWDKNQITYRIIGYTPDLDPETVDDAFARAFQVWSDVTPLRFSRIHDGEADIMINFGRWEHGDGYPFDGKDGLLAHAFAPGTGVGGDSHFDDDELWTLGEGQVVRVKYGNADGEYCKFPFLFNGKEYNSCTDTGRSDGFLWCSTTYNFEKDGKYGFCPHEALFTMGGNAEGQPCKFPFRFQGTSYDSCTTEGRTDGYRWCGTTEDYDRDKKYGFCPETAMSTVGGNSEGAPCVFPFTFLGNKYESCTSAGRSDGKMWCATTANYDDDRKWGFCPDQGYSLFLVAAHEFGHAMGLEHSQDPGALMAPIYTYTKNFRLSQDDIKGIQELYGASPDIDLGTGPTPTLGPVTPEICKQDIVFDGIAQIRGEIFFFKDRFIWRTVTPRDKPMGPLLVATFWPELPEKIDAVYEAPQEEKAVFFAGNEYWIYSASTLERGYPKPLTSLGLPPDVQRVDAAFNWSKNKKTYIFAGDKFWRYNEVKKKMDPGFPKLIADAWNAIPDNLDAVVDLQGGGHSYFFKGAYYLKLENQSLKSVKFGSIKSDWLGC
# Protocol: Automated MMP Profiling Assay, MMP-2 fluorogenic
# Type: biochemical
# Protocol conditions: 96-well automated, P218; read-out: MMP-2 Fluorogenic IC50 (profiling)
Measured attribute: IC50 (nM)
Express the result in nM but write the number alone.

As a guide, the following entries are already answered.
COC(=O)c1cc(F)ccc1SCC(CC(=O)c1ccc(-c2ccc(Cl)cc2)cc1)C(=O)O (stereo not drawn) [Example 434]: 61
CCCCCSc1ccc(-c2ccc(C(=O)CC(CCCc3ccccc3)C(=O)O)cc2)cc1 (stereo not drawn) [Example 72]: 90
O=C(CC(CCCc1ccccc1)C(=O)O)c1ccc(-c2ccc(Cl)cc2)cc1 (stereo not drawn) [Example 114]: 68
CCCCNC(=O)c1ccccc1CCC(CC(=O)c1ccc(-c2ccc(Cl)cc2)cc1)C(=O)O (stereo not drawn) [Example 147]: 73
O=C(CC(CCN1C(=O)c2ccc(OCc3ccccc3)cc2C1=O)C(=O)O)c1ccc(-c2ccc(Cl)cc2)cc1 (stereo not drawn) [Example 405]: 80

# input Give the value of IC50 reported for the following: O=C(c1ccc(-c2ccc(Cl)cc2)cc1)[C@H]1CCN(C(=O)Cc2ccccc2)[C@@H]1C(=O)O [Example 170]
# output 103
